TEST: Toxicity liver stage against HepG2, at 10uM
Type: cell-based
Design: test concentration 10 uM, cell line HepG2-A16-CD81EGFP
SETTINGS: human, HepG2-A16-CD81EGFP cells; read-out: INHIBITION
EXPERIMENTAL READOUT: cytotoxicity at 10 µM (%)
Just the number please, in %, no unit attached.

Here is how some compounds turned out for cytotoxicity at 10 µM.
[[record]]
compound = "COc1ccccc1CNC(=O)c1[nH]ncc1Cl"
observed_result = 1.72

[[record]]
compound = "CCOCC1CN(C(=O)c2cccs2)Cc2nn(C)cc21 (configuration not stated)"
observed_result = -1.63

[[record]]
compound = "N#Cc1cccc(NC2CC(=O)N(CCc3ccc(F)cc3)C2)n1 (configuration not stated)"
observed_result = -118


Fill blank: measured cytotoxicity at 10 µM of the compound O=C(c1ccc2c(c1)COC2)N1CCCC(n2cncn2)C1 (configuration not stated) is ____. -20.6

Fill blank: measured cytotoxicity at 10 µM of the compound `CNC(=O)c1cccc(Nc2cnn(C)c2)c1` is ____. 6.77

Fill blank: measured cytotoxicity at 10 µM of the compound `Cc1ncc(CN2CC[C@@](C)(O)[C@H](Oc3cccc(F)c3)C2)cn1` is ____. -13.4

Fill blank: measured cytotoxicity at 10 µM of the compound `Cc1ccc(C(=O)N2CC[C@@]3(C[C@@H](NS(C)(=O)=O)CCO3)C2)s1` is ____. -73.9

Fill blank: measured cytotoxicity at 10 µM of the compound `Cc1nonc1OCCNc1ncnc2sc3c(c12)CCNC3` is ____. -1.69

Fill blank: measured cytotoxicity at 10 µM of the compound O=C(NCCc1ccccc1)N1CCCCC1C1OCCO1 (configuration not stated) is ____. -45.2

Fill blank: measured cytotoxicity at 10 µM of the compound `CCN(C)S(=O)(=O)N(CC)Cc1ccc2c(c1)OCO2` is ____. -6.62

Fill blank: measured cytotoxicity at 10 µM of the compound `CNC(=O)[C@H]1C[C@H]2CN(Cc3cccc(C)c3)C[C@@H]1O2` is ____. 8.97

Fill blank: measured cytotoxicity at 10 µM of the compound `CN(CCn1ccc2ccccc21)C(=O)CS(C)(=O)=O` is ____. -8.14

---

TEST: Toxicity liver stage against HepG2, at 10uM
Assay type: cell-based
Design: test concentration 10 uM, cell line HepG2-A16-CD81EGFP
SETTINGS: human, HepG2-A16-CD81EGFP cells; read-out: INHIBITION
EXPERIMENTAL READOUT: cytotoxicity at 10 µM
Answer shape: numeric part, then the unit.

[[record]]
compound = "CN(Cc1ccccc1OC(F)(F)F)C(=O)C1CCCN(C(N)=O)C1 (stereo unspecified)"
observed_result = "7.59%"

[[record]]
compound = "CC(C)c1cc(C(=O)N(Cc2ccncc2)CC2CCCO2)no1 (stereo unspecified)"
observed_result = "15.6%"

[[record]]
compound = "CCc1nc(N2CCN(c3ncccn3)CC2)c2cnn(C)c2n1"
observed_result = "-1.04%"

[[record]]
compound = "O=C(O)CC(NC(=O)CCCc1cccs1)c1ccc(F)cc1 (stereo unspecified)"
observed_result = "-2.99%"

[[record]]
compound = "CCn1cc(CCC(=O)NCc2csc(C3CC3)n2)c(C)n1"
observed_result = "-8.78%"


Fill blank: measured cytotoxicity at 10 µM of the compound O=C(Cc1ccc2c(c1)CCC2)N1CCCC1Cn1cccn1 (stereo unspecified) is ____. -139%

Fill blank: measured cytotoxicity at 10 µM of the compound `O=C(Cc1cccc(F)c1)NCCNCc1ccco1` is ____. -6.08%

Fill blank: measured cytotoxicity at 10 µM of the compound CC(=O)NC1CCCN(C(=O)NCc2cccnc2-n2cccn2)C1 (stereo unspecified) is ____. 5.56%

Fill blank: measured cytotoxicity at 10 µM of the compound `COCC(=O)N1CC[C@]2(O)CCN(Cc3ccsc3)C[C@@H]2C1` is ____. 0.196%

Fill blank: measured cytotoxicity at 10 µM of the compound CNc1nc(C2CCCCN2C(=O)C(C)(C)OC)nc2c1CN(C)CC2 (stereo unspecified) is ____. -6.61%

Fill blank: measured cytotoxicity at 10 µM of the compound CC(C)c1cc(NC(=O)CN2CCCC2Cn2cccn2)on1 (stereo unspecified) is ____. -8.35%

---

compounds and their reported cytotoxicity at 10 µM
TEST: Toxicity liver stage against HepG2, at 10uM
Assay type: cell-based
Set-up: test concentration 10 uM, cell line HepG2-A16-CD81EGFP
SETTINGS: human, HepG2-A16-CD81EGFP cells; read-out: INHIBITION
Answer shape: numeric part, then the unit.

Here is how some compounds turned out for cytotoxicity at 10 µM.
[[record]]
compound = "Cn1ccc(C(=O)NCc2ccccc2CN2CCCCC2)cc1=O"
observed_result = "-2.51%"

[[record]]
compound = "CCS(=O)(=O)N1CC[C@H](OC)[C@H]2CN(Cc3ccncc3)C[C@H]21"
observed_result = "10.3%"

[[record]]
compound = "CCc1nccn1C1CCCN(C(=O)c2ccc(N(C)C)nn2)C1 (stereo unspecified)"
observed_result = "3.19%"

[[record]]
compound = "Cc1ccc(N2C[C@@H]3CN(C(=O)c4ccccc4)CCO[C@@H]3C2)nn1"
observed_result = "-5.52%"


Fill blank: measured cytotoxicity at 10 µM of the compound `CC(=O)N1CCC(c2cncc(N3CCCCCC3)n2)CC1` is ____. 11.3%

Fill blank: measured cytotoxicity at 10 µM of the compound `CC(=O)Nc1cccc2c1ccn2CC(=O)Nc1nc[nH]n1` is ____. -0.79%

Fill blank: measured cytotoxicity at 10 µM of the compound `Cc1ccc(C(=O)N2CCC(Oc3c(C)cccc3C)CC2)c(=O)[nH]1` is ____. -2.51%

Fill blank: measured cytotoxicity at 10 µM of the compound `COc1ccsc1C(=O)N1CCCN(Cc2cscn2)CC1` is ____. -9.12%

Fill blank: measured cytotoxicity at 10 µM of the compound `Cc1cc(N2CCC(c3ncc[nH]3)CC2)cc(C)n1` is ____. -1.95%

Fill blank: measured cytotoxicity at 10 µM of the compound `CCOC(=O)[C@]12CCCN(Cc3nccs3)C[C@H]1CN(CC(C)C)C2` is ____. -2.85%

Fill blank: measured cytotoxicity at 10 µM of the compound Cc1ncc(-c2ccncc2)c(C2CCCN(C(=O)c3ccno3)C2)n1 (stereo unspecified) is ____. 11.9%

---

compounds and their reported cytotoxicity at 10 µM
TEST: Toxicity liver stage against HepG2, at 10uM
Format: cell-based
Parameters: test concentration 10 uM, cell line HepG2-A16-CD81EGFP
SETTINGS: human, HepG2-A16-CD81EGFP cells; read-out: INHIBITION
Just the number please, in %, no unit attached.

Here is how some compounds turned out for cytotoxicity at 10 µM.
[[record]]
compound = "Cc1ccc(N2N=C(C(=O)N(C)Cc3ccco3)NCC2=O)cc1"
experimental_readout = "cytotoxicity at 10 µM"
observed_result = 6.27

[[record]]
compound = "Cc1cnc(N2CCCn3c(nnc3Cn3cccn3)C2)nc1"
experimental_readout = "cytotoxicity at 10 µM"
observed_result = 6.19


Fill blank: measured cytotoxicity at 10 µM of the compound CC(Cn1cccn1)NCc1csc(COc2ccccc2)n1 (centres undefined) is ____. -8.51

Fill blank: measured cytotoxicity at 10 µM of the compound Cc1nc(NCCC23CCCN2CCC3)cc(C2CCCNC2)n1 (centres undefined) is ____. 7.98

Fill blank: measured cytotoxicity at 10 µM of the compound `COc1ccc([C@@H]2C[C@H](NC(C)=O)C[C@H](Cc3ccccc3)O2)cn1` is ____. 5.46

Fill blank: measured cytotoxicity at 10 µM of the compound `O=c1ccc(-n2cccn2)nn1CCNS(=O)(=O)c1ccc(F)c(Cl)c1` is ____. 1.48

---

molecules and their reported cytotoxicity at 10 µM
TEST: Toxicity liver stage against HepG2, at 10uM
Format: cell-based
Design: test concentration 10 uM, cell line HepG2-A16-CD81EGFP
SETTINGS: human, HepG2-A16-CD81EGFP cells; read-out: INHIBITION
Just the number please, in %, no unit attached.

Here is how some molecules turned out for cytotoxicity at 10 µM.
[[record]]
molecule = "CCC1CCC(CNC(=O)c2c[nH]c(=O)c(Cl)c2)CC1 (stereo not given)"
observed_result = -8.46

[[record]]
molecule = "COc1cc2c(cc1OC)S(=O)(=O)N(Cc1cnn(C)c1)C2=O"
observed_result = 12.6

[[record]]
molecule = "Cc1ccc(-c2nc(CNC3CCc4ncnn4C3)cs2)cc1 (stereo not given)"
observed_result = -9.27

[[record]]
molecule = "CCOc1ccc2nc(CN3CCOC(CN)C3)ccc2c1 (stereo not given)"
observed_result = -3.54


// switching to the query molecule
Fill blank: measured cytotoxicity at 10 µM of the molecule `CC(=O)N1CCN(C(=O)CN2CCc3c(ncn3C3CC3)C2)CC1` is ____. 3.3
